study system: T1, human TLR4/MD2 complex expressed on the cell surface (human, UniProt O00206 24-839; Q9Y6Y9 19-160)
T1 construct: also called CHO TLR4/MD2 transfectants
T1 sequence (O00206 24-839 limits assumed, chain 1 of 2): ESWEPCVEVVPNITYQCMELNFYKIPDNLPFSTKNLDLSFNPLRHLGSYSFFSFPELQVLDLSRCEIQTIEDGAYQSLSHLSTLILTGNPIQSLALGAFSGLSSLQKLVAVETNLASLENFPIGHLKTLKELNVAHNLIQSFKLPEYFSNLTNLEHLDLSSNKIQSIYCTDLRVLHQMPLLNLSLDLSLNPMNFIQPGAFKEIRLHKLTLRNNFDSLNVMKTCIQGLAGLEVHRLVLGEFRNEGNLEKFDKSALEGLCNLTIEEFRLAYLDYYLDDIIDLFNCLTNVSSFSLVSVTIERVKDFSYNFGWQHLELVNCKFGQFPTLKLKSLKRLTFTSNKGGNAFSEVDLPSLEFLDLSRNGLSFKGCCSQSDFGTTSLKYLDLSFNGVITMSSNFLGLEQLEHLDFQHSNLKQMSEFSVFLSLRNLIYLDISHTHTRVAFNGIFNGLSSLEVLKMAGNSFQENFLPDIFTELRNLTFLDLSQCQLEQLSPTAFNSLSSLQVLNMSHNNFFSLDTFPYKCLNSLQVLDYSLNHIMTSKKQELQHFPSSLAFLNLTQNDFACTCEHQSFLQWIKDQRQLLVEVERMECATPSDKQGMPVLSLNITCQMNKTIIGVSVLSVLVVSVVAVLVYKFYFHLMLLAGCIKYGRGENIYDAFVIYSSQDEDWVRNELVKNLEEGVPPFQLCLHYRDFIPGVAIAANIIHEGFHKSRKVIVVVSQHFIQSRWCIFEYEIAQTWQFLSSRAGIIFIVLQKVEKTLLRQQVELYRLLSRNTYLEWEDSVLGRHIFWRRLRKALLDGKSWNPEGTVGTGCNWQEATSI
T1 sequence (Q9Y6Y9 19-160 R56G limits assumed, chain 2 of 2): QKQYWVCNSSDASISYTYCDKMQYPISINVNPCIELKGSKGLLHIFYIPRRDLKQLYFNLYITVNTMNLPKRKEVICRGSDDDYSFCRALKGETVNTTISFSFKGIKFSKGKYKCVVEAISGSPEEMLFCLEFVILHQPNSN
experiment notes: FACS on CHO stable cell line expressing human TLR4/MD2

- binder: "chimeric IgG1 15C1 mutant # E (NAAL at EU positions 325 to 328) (antibody, V domains shown, Positions are in EU numbering; not shown: human IgG1 heavy chain constant region; human Kappa light chain constant region) VH: DVQLQESGPDLIQPSQSLSLTCTVTGYSITGGYSWHWIRQFPGNKLEWMGYIHYSGYTDFNPSLKTRISITRDTSKNQFFLQLNSVTTEDTATYYCARKDPSDGFPYWGQGTLVTVSA VL: DIVMTQSPATLSVTPGDRVSLSCRASQSISDHLHWYQQKSHESPRLLIKYASHAISGIPSRFSGSGSGTDFTLSIKSVEPEDIGVYYCQNGHSFPLTFGAGTKLELK"
  binding result: "binds"
- binder: "chimeric IgG1 15C1 mutant # G (NAAF at EU positions 325 to 328) (antibody, V domains shown, Positions are in EU numbering; not shown: human IgG1 heavy chain constant region; human Kappa light chain constant region) VH: DVQLQESGPDLIQPSQSLSLTCTVTGYSITGGYSWHWIRQFPGNKLEWMGYIHYSGYTDFNPSLKTRISITRDTSKNQFFLQLNSVTTEDTATYYCARKDPSDGFPYWGQGTLVTVSA VL: DIVMTQSPATLSVTPGDRVSLSCRASQSISDHLHWYQQKSHESPRLLIKYASHAISGIPSRFSGSGSGTDFTLSIKSVEPEDIGVYYCQNGHSFPLTFGAGTKLELK"
  binding result: "binds"
- binder: "chimeric IgG1 15C1 mutant # C (SAAF at EU positions 325 to 328) (antibody, V domains shown, Positions are in EU numbering; not shown: human IgG1 heavy chain constant region; human Kappa light chain constant region) VH: DVQLQESGPDLIQPSQSLSLTCTVTGYSITGGYSWHWIRQFPGNKLEWMGYIHYSGYTDFNPSLKTRISITRDTSKNQFFLQLNSVTTEDTATYYCARKDPSDGFPYWGQGTLVTVSA VL: DIVMTQSPATLSVTPGDRVSLSCRASQSISDHLHWYQQKSHESPRLLIKYASHAISGIPSRFSGSGSGTDFTLSIKSVEPEDIGVYYCQNGHSFPLTFGAGTKLELK"
  binding result: "binds"

Attribution: patent US20120142098A1
